Test system: HCC-2998 colon
Test: NCI-60 one-dose screen, 48 h (100 = growth as untreated, 0 = no growth, -100 = all killed)
Conditions: 10 µM unless noted
This is part of a sample that, as a whole, favours compounds with a hit. Of some 83,000 tested, about 20% had one in any assay.
Below, each entry is listed alongside its reported growth.
Dear colleague, please return just the value in %, with no unit written.

• Cc1cc(C)c(N2C(=O)CC(Nc3ccc(Cl)cc3Cl)C2=O)c(C)c1 (stereo not drawn) = 118

Request: Which growth reading was recorded for the compound `CNC(=O)c1c(NC(=O)c2cccc(C(F)(F)F)c2F)sc2c1CCC(=O)C2` ?
Response: 25.2

Request: Tell me the measured growth of `N#Cc1ccccc1Cn1c2nc(=N)c3ccccc3c-2nc2ccccc21` , please.
Response: 60.2

Request: State the recorded growth for this entry: `O=C(Nc1cccc(C(F)(F)F)c1)c1cc(-c2ccc(F)cc2F)ccc1O`
Response: 15.2

Request: Return reported growth; argument: `COc1cc(/C=C2\C(=O)Nc3ccccc32)ccc1OCc1ccc(Cl)cc1`
Response: 123

Request: Quick one: growth of `C/C(=N\O)[C@H]1C[C@]23CC[C@]4(C)[C@H](CC[C@@H]5[C@@]6(C)CC/C(=N/O)C(C)(C)[C@@H]6CC[C@]54C)[C@H]2[C@H](C)C1(C)OC3` ?
Response: 115

Request: GET /values?readout=growth&item= CC(C)(C)c1ccc(C(=O)Nc2sc3c(c2C(N)=O)CCC(O)C3)cc1 (stereo not drawn)
Response: 37.4

Request: Query: growth; subject: `Cc1ccc(-n2cc(/C=C/C(=O)c3ccc(O)cc3)c(-c3ccc(S(C)(=O)=O)cc3)n2)cc1`
Response: 104

Request: If you can, please state the reported growth value of `CNC(=O)c1cc(Oc2ccc3nc(NC(=O)c4cc(N5CCOCC5)cc(C(F)(F)F)c4)sc3c2)ccn1` .
Response: 114

Request: Query: growth; subject: `COc1ccc(/C(N)=N/C(N)=N/c2nc3ccccc3s2)cc1`
Response: 91.9

Request: Suppose we examine the compound COc1cc2c(cc1OC)C(Sc1ccc(F)cc1)c1c(nc(N)c(C#N)c1N)O2 (stereo not drawn) ; what growth value has been reported?
Response: -86.1

Request: # get_value(readout='growth', item= `NS(=O)(=O)c1ccc(Nc2nc(N/N=C/c3ccc(Cl)cc3)nc(Nc3ccccc3)n2)cc1` )
Response: 76.4

Request: What growth value was documented for this compound, `COC(=O)c1ccc(NC2=C/C(=N/S(=O)(=O)c3ccc(C(=O)O)cc3)c3ccccc3C2=O)cc1` ?
Response: 105

Request: What value of growth has been reported for the following compound? `C=C(C)[C@@H]1CC[C@]2(COCCCNCCC#N)CC[C@]3(C)[C@H](CC[C@@H]4[C@@]5(C)CC[C@H](OCCCNCCC#N)C(C)(C)[C@@H]5CC[C@]43C)[C@@H]12`
Response: 31.8

Request: GET /values?readout=growth&item= `CC[C@H](CO)Nc1ccc2ncc(C#Cc3cncc(C(=O)Nc4ccc(CN5CCN(C)CC5)c(C(F)(F)F)c4)c3)n2n1`
Response: -59.4

Request: Quick one: growth of COc1cc2nc(Cl)nc(Nc3cccc(C4=Nc5c(N)nc(N)nc5NC(c5ccc(Cl)cc5)C4)c3)c2cc1OC (stereo not drawn) ?
Response: 4.35

Request: Could you share which growth value was measured for CCNC(=O)N1CCc2cc(OC)c(OCCc3ccc(OC)c(N)c3)cc2C1c1ccc(C)cc1C (stereo not drawn) ?
Response: 20.6

Request: Entry `Nc1nc(Nc2ccccc2SSc2ccccc2Nc2nc(N)nc(-c3ccccc3)n2)nc(-c2ccccc2)n1` : reported growth = ?
Response: 110
